test.method.notes: in vivo
assay.context: male, Wistar Han, rat, in vivo; day 42; single IM Example 37A 56 mg/kg; read-out: Mean concentration of Example 37A
reported.endpoint: concentration at 42 day
I'd appreciate it if you wrote the number followed by its unit.

Endpoint output: concentration at 42 day of C#C[C@]1(COP(=O)(N[C@@H](C)C(=O)OC(CCCCCCCCCC)CCCCCCCCCC)Oc2ccccc2)O[C@@H](n2cnc3c(N)nc(F)nc32)C[C@@H]1O (single isomer, unassigned) [Example 37A] . Value?
5.29 ng/mL

====

test.method.notes: in vivo
assay.context: male, Wistar Han, rat, in vivo; day 42; single IM 63 mg/kg; read-out: Mean concentration of Example 26A
reported.endpoint: concentration at 42 day (ng/mL)
Write the answer as a number in ng/mL, unit excluded.

What value of measured concentration at 42 day is listed for C#C[C@]1(COP(=O)(N[C@@H](Cc2ccccc2)C(=O)OC(CCCCCCCCCCC)CCCCCCCCCCC)Oc2ccccc2)O[C@@H](n2cnc3c(N)nc(F)nc32)C[C@@H]1O (single isomer, unassigned) [Example 26A] ?
11.1

====

test.method.notes: in vivo
assay.context: male, Wistar Han, rat, in vivo; day 7; single IM Example 19A 55 mg/kg; read-out: Mean concentration of Example 19A
reported.endpoint: concentration at 7 day

Could you share which concentration at 7 day value was measured for C#C[C@]1(COP(=O)(N[C@@H](Cc2ccccc2)C(=O)OCCCCCCCCCCCCCCC)Oc2ccccc2)O[C@@H](n2cnc3c(N)nc(F)nc32)C[C@@H]1O (single isomer, unassigned) [Example 19A] ?
9.08 ng/mL

====

test.method.notes: in vivo
assay.context: male, Wistar Han, rat, in vivo; day 28; single IM Example 2A 56 mg/kg; read-out: Mean concentration of Example 2A
reported.endpoint: concentration at 28 day (ng/mL)
Express your answer in ng/mL, writing the number without its unit.

Given C#C[C@]1(COP(=O)(N[C@@H](Cc2ccccc2)C(=O)OCCCCCCCCCCCCCCCC)Oc2ccccc2)O[C@@H](n2cnc3c(N)nc(F)nc32)C[C@@H]1O (single isomer, unassigned) , state its recorded concentration at 28 day.
4.08

====

test.method.notes: in vivo
assay.context: male, Wistar Han, rat, in vivo; day 14; single IM Example 1B 62 mg/kg; read-out: Mean concentration of Example 1B
From the text: General Protocol for Prodrugs Rat PK Studies Conducted at ChemPartner, China A total of three naïve male Wistar Han rats, 200-250 g, were received from Beijing VR Laboratory Animal Co. LTD. Following an acclimation period, the animals were assigned to the study based on acceptable health as determined by a staff veterinarian and catheter patency. Fasting of the animals before or after dosing was not required. […]
reported.endpoint: concentration at 14 day (ng/mL)
Give just the numeric value; ng/mL need not be written.

Suppose we examine the compound C#C[C@]1(COP(=O)(N[C@@H](Cc2ccccc2)C(=O)OCCCCCCCCCCCCCCCCCCCCCC)Oc2ccccc2)O[C@@H](n2cnc3c(N)nc(F)nc32)C[C@@H]1O (single isomer, unassigned) ; what concentration at 14 day value has been reported?
6.78

====

test.method.notes: in vivo
assay.context: male, Wistar Han, rat, in vivo; day 77; single IM Example 43A 60 mg/kg; read-out: Mean concentration of Example 43A
reported.endpoint: concentration at 77 day (ng/mL)
Write the value in ng/mL as a bare number.

Sample C#C[C@]1(COP(=O)(N[C@@H](Cc2ccccc2)C(=O)OCCCCCCCCCCCCCCCCCCCC)Oc2ccccc2)O[C@@H](n2cnc3c(N)nc(F)nc32)C[C@@H]1O (single isomer, unassigned) [Example 43A] — what was its concentration at 77 day?
13.5

====

test.method.notes: in vivo
assay.context: male, Wistar Han, rat, in vivo; day 77; single IM Example 20A 57 mg/kg; read-out: Mean concentration of Example 20A
reported.endpoint: concentration at 77 day (ng/mL)
Form entry: value (ng/mL) — number only.

State the recorded concentration at 77 day for this entry: C#C[C@]1(COP(=O)(N[C@@H](Cc2ccccc2)C(=O)OCCCCCCCCCCCCCCCCC)Oc2ccccc2)O[C@@H](n2cnc3c(N)nc(F)nc32)C[C@@H]1O (single isomer, unassigned) [Example 20A]
4

====

test.method.notes: in vivo
assay.context: male, Wistar Han, rat, in vivo; day 14; single IM Example 43A 60 mg/kg; read-out: Mean concentration of Example 43A
reported.endpoint: concentration at 14 day (ng/mL)
# unit: ng/mL | format: bare number

Quick one: concentration at 14 day of C#C[C@]1(COP(=O)(N[C@@H](Cc2ccccc2)C(=O)OCCCCCCCCCCCCCCCCCCCC)Oc2ccccc2)O[C@@H](n2cnc3c(N)nc(F)nc32)C[C@@H]1O (single isomer, unassigned) [Example 43A] ?
22.7

====

test.method.notes: in vivo
assay.context: male, Wistar Han, rat, whole blood, intramuscular; day 35; single IM Example 11A 20 mg/kg equivalent of EFdA; read-out: Mean concentration of Example 11A
reported.endpoint: concentration at 35 day (ng/mL)
Value expressed in ng/mL; do not type the unit.

concentration at 35 day lookup needed for C#C[C@]1(COP(=O)(N[C@@H](Cc2ccccc2)C(=O)OCCCCCCCCCCCC)OCC(=O)OCCCCCCCCCCCC)O[C@@H](n2cnc3c(N)nc(F)nc32)C[C@@H]1O (single isomer, unassigned) [Example 11A] , thanks.
1.35

====

test.method.notes: EFdA Rat PK Studies (subcutaneous and intramuscular groups), plasma concentration by LC-MS/MS
Format: in vivo, Wistar Han rats
assay.context: male, Wistar Han, rat, plasma, sc, 20 mg/kg, 24 hr; SC 20 mg/kg; plasma; read-out: Assayed Concentrations of EFdA, Mean
reported.endpoint: concentration at 24 h (ng/mL)
# output: bare number, implied unit ng/mL

concentration at 24 h for `C#C[C@]1(CO)O[C@@H](n2cnc3c(N)nc(F)nc32)C[C@@H]1O` ?
7.98

====

test.method.notes: EFdA Rat PK Studies (subcutaneous and intramuscular groups), plasma concentration by LC-MS/MS
Format: in vivo, Wistar Han rats
assay.context: male, Wistar Han, rat, plasma, sc, 20 mg/kg, 1 hr; SC 20 mg/kg; plasma; read-out: Assayed Concentrations of EFdA, Mean
reported.endpoint: concentration at 1 h (µg/mL)
Answer in µg/mL, number only, no unit symbol.

Give the measured concentration at 1 h of `C#C[C@]1(CO)O[C@@H](n2cnc3c(N)nc(F)nc32)C[C@@H]1O` .
1.43

====

test.method.notes: in vivo
assay.context: male, Wistar Han, rat, in vivo; day 21; single IM Example 39A 58 mg/kg; read-out: Mean concentration of Example 39A
reported.endpoint: concentration at 21 day (ng/mL)
Return type: number; implicit unit ng/mL.

// returns reported concentration at 21 day for input C#C[C@]1(COP(=O)(N[C@@H](Cc2cc(F)cc(F)c2)C(=O)OCCCCCCCCCCCCCCCC)Oc2ccccc2)O[C@@H](n2cnc3c(N)nc(F)nc32)C[C@@H]1O (single isomer, unassigned) [Example 39A]
8.77

====

test.method.notes: in vivo
assay.context: male, Wistar Han, rat, in vivo; day 7; single IM Example 39A 58 mg/kg; read-out: Mean concentration of Example 39A
reported.endpoint: concentration at 7 day
Note: state the figure and append the unit.

Quick check: concentration at 7 day of C#C[C@]1(COP(=O)(N[C@@H](Cc2cc(F)cc(F)c2)C(=O)OCCCCCCCCCCCCCCCC)Oc2ccccc2)O[C@@H](n2cnc3c(N)nc(F)nc32)C[C@@H]1O (single isomer, unassigned) [Example 39A] ?
13.2 ng/mL

====

test.method.notes: in vivo
assay.context: male, Wistar Han, rat, in vivo; day 14; single IM 63 mg/kg; read-out: Mean concentration of Example 26A
reported.endpoint: concentration at 14 day

Can you share its concentration at 14 day? I mean this compound: C#C[C@]1(COP(=O)(N[C@@H](Cc2ccccc2)C(=O)OC(CCCCCCCCCCC)CCCCCCCCCCC)Oc2ccccc2)O[C@@H](n2cnc3c(N)nc(F)nc32)C[C@@H]1O (single isomer, unassigned) [Example 26A]
33.8 ng/mL

====

test.method.notes: in vivo
assay.context: male, Wistar Han, rat, in vivo; day 7; single IM Example 37A 56 mg/kg; read-out: Mean concentration of Example 37A
reported.endpoint: concentration at 7 day (ng/mL)
Supply the numeric figure in ng/mL, leaving out any unit text.

Query (compound): C#C[C@]1(COP(=O)(N[C@@H](C)C(=O)OC(CCCCCCCCCC)CCCCCCCCCC)Oc2ccccc2)O[C@@H](n2cnc3c(N)nc(F)nc32)C[C@@H]1O (single isomer, unassigned) [Example 37A] ; field requested: concentration at 7 day
3.58

====

test.method.notes: in vivo
assay.context: male, Wistar Han, rat, in vivo; day 21; single IM Example 37A 56 mg/kg; read-out: Mean concentration of Example 37A
reported.endpoint: concentration at 21 day (ng/mL)
Dear colleague, please return just the value in ng/mL, with no unit written.

What value of concentration at 21 day has been recorded for this entry: C#C[C@]1(COP(=O)(N[C@@H](C)C(=O)OC(CCCCCCCCCC)CCCCCCCCCC)Oc2ccccc2)O[C@@H](n2cnc3c(N)nc(F)nc32)C[C@@H]1O (single isomer, unassigned) [Example 37A]
5.16
